- SYSTEM_NAME: G/T mismatch-specific thymine DNA glycosylase (Homo sapiens);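 note: human TDG cleavage of quenched duplex DNA oligonucleotides coupled to APE1, strand release read as fluorescence at 594 nm, inhibition of TDG activity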
- CONDITION_CONTEXT: Compound Concentration 1.0 uM, Hit No
- Description: Inhibition of TDG by quantifying inhibition of TDG-mediated cleavage and dissociation of quenched duplex DNA oligonucleotides, measured as fluorescence at 594 nm. To generate a functional strand incision and increase turn-over this assay is coupled to APE1.
Entries are sorted into classes by inhibition as follows: LOW: < 40%; MEDIUM: ≥ 40% and < 50%; HIGH: ≥ 50%

Here's what some known entries look like.
{"COMPOUND_SMILES": "CNC(=O)c1ccc(Nc2ncc(C(F)(F)F)c(NCc3nccnc3N(C)S(C)(=O)=O)n2)cc1", "CATEGORY": "MEDIUM"}
{"COMPOUND_SMILES": "Cc1cccc(-c2[nH]c(CNc3ccccc3F)nc2-c2ccc3ncnn3c2)n1", "CATEGORY": "LOW"}
{"COMPOUND_SMILES": "Cc1ccc(NC(=O)Nc2cc(C(F)(F)F)ccc2F)cc1Nc1ccc2c(c1)NC(=O)/C2=C\\c1ccc[nH]1", "CATEGORY": "LOW"}
{"COMPOUND_SMILES": "C[C@@H]1CCNC(=O)c2cc3ccc(C(=O)Nc4nc5ccccc5n4CCCN(C)C)cc3n21", "CATEGORY": "LOW"}
{"COMPOUND_SMILES": "Cc1c(Oc2ccc(F)cc2)c(OC(C)C)nn1-c1ccc(C2CC2)cn1", "CATEGORY": "HIGH"}
{"COMPOUND_SMILES": "c1ccc(-c2oc3ncnc(NC[C@@H]4CCCO4)c3c2-c2ccccc2)cc1", "CATEGORY": "LOW"}
{"COMPOUND_SMILES": "CN1C(=O)[C@@H](N2CCc3c(nn(Cc4ccccc4)c3Br)C2=O)COc2ccccc21", "CATEGORY": "LOW"}
{"COMPOUND_SMILES": "Cc1cnc(Nc2ccc(F)cc2Cl)nc1-c1c[nH]c(C(=O)N[C@H](CO)c2cccc(Cl)c2)c1", "CATEGORY": "MEDIUM"}

**Query** Would you mind sorting `Nc1cnc(N2CCc3cc(S(=O)(=O)Nc4c(F)cc(Cl)cc4F)cc(N4CCCC4=O)c32)nc1` into the appropriate category?
**Result** MEDIUM

**Query** Also `CCOC(=O)c1c(/C(C#N)=C\N)c2ccc(Cl)c(Cl)c2n1C` , if possible.
**Result** MEDIUM

**Query** Also `Cc1cc(NC(=O)c2cccc(S(F)(F)(F)(F)F)c2)cc(-n2ccn3nc(-c4cccnc4)cc23)c1` , if possible.
**Result** HIGH

**Query** Also `CN(C)C(=O)/C(C#N)=C/c1ccc(-c2nc3cnc4[nH]ccc4c3n2C2CCCCC2)o1` , if possible.
**Result** HIGH

**Query** Also `CN1CCN(c2ccc(OC(F)(F)F)c(Nc3ncc4c(n3)-c3c(c(C(N)=O)nn3CCO)CC4)c2)CC1` , if possible.
**Result** LOW

**Query** Also `Cc1c(NC(=O)c2cc(C(N)=O)nc3cc(F)ccc23)c(C(F)(F)F)nn1Cc1ccc(C(C)(C)C)cc1` , if possible.
**Result** HIGH

---

So I've got a bunch of compounds here, and I need their inhibition values.
- SYSTEM_NAME: Endonuclease 8-like 2 (Homo sapiens) (UniProt Q969S2);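 note: fluorescence at 594 nm reports NEIL2 cutting and release of a quenched double-stranded DNA oligo substrate, reduced signal read as inhibition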
- Sequence (whole entry): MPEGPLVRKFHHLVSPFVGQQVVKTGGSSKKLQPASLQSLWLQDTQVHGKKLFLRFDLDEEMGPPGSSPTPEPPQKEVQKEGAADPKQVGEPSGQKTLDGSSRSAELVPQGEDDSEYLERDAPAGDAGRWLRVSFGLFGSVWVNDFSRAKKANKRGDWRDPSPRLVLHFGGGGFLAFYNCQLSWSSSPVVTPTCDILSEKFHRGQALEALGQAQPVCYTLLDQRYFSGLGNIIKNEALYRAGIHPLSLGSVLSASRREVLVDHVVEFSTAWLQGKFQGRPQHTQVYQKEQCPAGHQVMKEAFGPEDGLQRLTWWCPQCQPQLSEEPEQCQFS
- CONDITION_CONTEXT: Compound Concentration 10.0 uM, Hit No
- Description: Inhibition of NEIL2 by quantifying inhibition of NEIL2-mediated cleavage and dissociation of quenched duplex DNA oligonucleotides, measured as fluorescence at 594 nm.
*1 amine or outer side, *2 acyl side, *3 side chain or, on linkers, in order; H or OH if unused. Where a SMILES comes first, the peptide text is derived from it. Bridges are numbered along the chain shown (N, C = ends). X1 = O=C(CCC[*:2])[*:1]
One number for each entry, in %.

# example entries with known answers
{"COMPOUND": "COc1ccc(-c2csc(NC(=O)[C@H]3CCCCN3S(=O)(=O)c3ccc(C)cc3)n2)cc1", "SYSTEM_NAME": "Endonuclease 8-like 2 (Homo sapiens) (UniProt Q969S2)", "UNIT_ABBREV": "%", "inhibition": 3.47}
{"COMPOUND": "CC(C)(C[C@H]1CN(S(=O)(=O)c2cccc(C(F)(F)F)c2)c2cc(-c3cc(F)cc(OC(F)F)c3)ccc2O1)C(=O)O", "SYSTEM_NAME": "Endonuclease 8-like 2 (Homo sapiens) (UniProt Q969S2)", "UNIT_ABBREV": "%", "inhibition": 1.55}
{"COMPOUND": "Clc1ccccc1C(c1ccccc1)(c1ccccc1)n1cccn1", "SYSTEM_NAME": "Endonuclease 8-like 2 (Homo sapiens) (UniProt Q969S2)", "UNIT_ABBREV": "%", "inhibition": -6.46}
{"COMPOUND": "CCc1cc(C(C)=O)c(O)cc1OCCCCCC(C)(C)c1nn[nH]n1", "SYSTEM_NAME": "Endonuclease 8-like 2 (Homo sapiens) (UniProt Q969S2)", "UNIT_ABBREV": "%", "inhibition": -8.97}
{"COMPOUND": "COc1ccccc1C(=O)Nc1cccc(NC(=O)c2cccc(C)c2)c1", "SYSTEM_NAME": "Endonuclease 8-like 2 (Homo sapiens) (UniProt Q969S2)", "UNIT_ABBREV": "%", "inhibition": -3.15}

Would you mind listing inhibition for each of the following compounds?
1. COc1cc(C(=O)N(CCCc2ccccc2)Cc2ccc(CC(=O)O)cc2)cc(OC)c1C
2. C[C@@H](c1cccc(CN)c1)n1cc(Cl)cc(C(N)=O)c1=N
3. FC(F)(F)c1c(N2CCC(c3ccccc3)CC2)ccn2c(CC3CC3)nnc12
4. CCC(=O)NC[C@@H]1C[C@H]1c1cccc2c1CCO2

**Result**
1: -7.97; 2: 0.0213; 3: -1.48; 4: -7.72

Would you mind listing inhibition for each of the following compounds?
1. CC1(C)CCC(C)(C)c2cc(NC(=O)c3ccc(C(=O)O)cc3)ccc21
2. COc1ccc(/C=C/CCCCOc2ccc(C(=O)c3cccc(C(=O)O)c3)cc2CCC(=O)O)cc1
3. O=C1NCN(c2ccccc2)C12CCN(CCCOc1ccc(F)cc1)CC2
4. O=C(O)Cc1cc(I)c(Oc2ccc(O)c(I)c2)c(I)c1

**Result**
4.36
15.7
2.26
-3.55

Would you mind listing inhibition for each of the following compounds?
1. Cc1cc(-n2nc(Cc3cc(F)cc(C(F)(F)F)c3)nc2C)ccc1C(N)=O
2. CC[C@H](C)[C@@H]1NC(=O)[C@H](Cc2ccc(OC)cc2)NC(=O)CCCSC[C@@H](C(=O)N2CCC[C@H]2C(=O)N[C@@H](CC(C)C)C(=O)NCC(N)=O)NC(=O)[C@H](CC(N)=O)NC(=O)[C@H](CCC(N)=O)NC1=O (Y(Me)IQNCPLG-NH2; linker N-5 via X1)
3. CCOC(=O)C1=C[C@]2(CC)CCCN3CCc4c(n1c1ccccc41)[C@@H]32
4. Cn1ncnc1COc1nn2c(-c3c(F)cccc3F)nnc2cc1C1CCC1
5. CCOc1cc(N2CCC(O)CC2)ccc1Nc1ncc2c(n1)N(C)c1ccccc1C(=O)N2C
6. CCCc1c(OCCCOc2ccc(OCC(=O)O)cc2)ccc(C(C)=O)c1O
7. COc1c(C(=O)/C=C/c2ccccc2)c(O)c(OC)c2occc12
8. O=C(O)c1ccc(-c2coc3ncc(-c4ccccc4)cc23)cc1Cl

**Result**
1: -0.234; 2: -7.22; 3: 6.02; 4: -3.41; 5: 2.66; 6: 10.5; 7: -3.15; 8: 1.31

Would you mind listing inhibition for each of the following compounds?
1. C[C@@H]1C[C@H](C)CN(c2ncc(Cl)c(Nc3ccc4c(c3)cc(OC(C)(C)C(=O)O)c(=O)n4C)n2)C1
2. N#Cc1c(Oc2cccc(OS(=O)(=O)CCCC(F)(F)F)c2)cccc1C(F)(F)F

**Result**
1: 8.19; 2: -7.74
